- Test System: PKA (Bos taurus)
- Construct: purchased Promega
- Experiment: In vitro PKA kinase activity assay (kemptide / SPA beads);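 further: Cell-free assay of purified PKA catalytic subunit phosphorylating the 7-mer kemptide substrate, run in MOPS buffer with magnesium acetate and BSA, with blank wells lacking enzyme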
- Type: biochemical
- Recorded Conditions: chimeric PTR compounds (peptide conjugated to isoquinoline small molecule); read-out: PKA IC50
*1 amine or outer side, *2 acyl side, *3 side chain or, on linkers, in order; H or OH if unused. Where a SMILES comes first, the peptide text is derived from it. Side-chain parts run from the residue outwards. [ ]: non-standard residue; d: D form. The star is where a group is joined. Isoquinoline5sulfonyl = O=S(=O)(c1cccc2cnccc12)*; Ethylenediamine = C(CN[*:2])N[*:1]; hLeu = CC(C)CC[C@H](N)C(=O)O; Nle = CCCC[C@H](N)C(=O)O; Nva = CCC[C@H](N)C(=O)O; βAla = NCCC(=O)O
Measured Parameter: log10 IC50 (log10 of the value in nM)
Note: values are log10 of IC50 expressed in nM.

The examples below pair each entry with its known result.
• CCCC[C@H](NC(=O)[C@H](CCCNC(=N)N)NC(=O)[C@@H]1CCCN1C(=O)[C@@H](N)CCCNC(=N)N)C(=O)N[C@@H](CCC(=O)NCCNS(=O)(=O)c1cccc2cnccc12)C(=O)N[C@@H](CO)C(=O)N[C@@H](Cc1ccccc1)C(N)=O = 2.00
• CCCC[C@H](NC(=O)[C@H](CCCNC(=N)N)NC(=O)[C@@H]1CCCN1C(=O)[C@@H](N)CCCNC(=N)N)C(=O)N[C@@H](CCC(=O)NCCC(=O)NCCNS(=O)(=O)c1cccc2cnccc12)C(=O)N[C@@H](CO)C(=O)N[C@@H](Cc1ccccc1)C(N)=O = 2.70
• CCCC[C@H](NC(=O)[C@H](CO)NC(=O)[C@H](CCC(=O)NCCC(=O)NCCNS(=O)(=O)c1cccc2cnccc12)NC(=O)[C@H](CCCC)NC(=O)[C@H](CCCNC(=N)N)NC(=O)[C@@H]1CCCN1C(=O)[C@@H](N)CCCNC(=N)N)C(N)=O [compound 6096] (H-RPR[Nle]E([βAla-Ethylenediamine-Isoquinoline5sulfonyl])S[Nle]-NH2; N-terminus assumed) = 2.30
• CCC[C@H](NC(=O)[C@H](CCCNC(=N)N)NC(=O)[C@@H]1CCCN1C(=O)[C@@H](N)CCCNC(=N)N)C(=O)N[C@@H](CCC(=O)NCCC(=O)NCCNS(=O)(=O)c1cccc2cnccc12)C(=O)N[C@@H](C)C(=O)N[C@@H](CCC(C)C)C(N)=O [compound 6152] (H-RPR[Nva]E([βAla-Ethylenediamine-Isoquinoline5sulfonyl])A[hLeu]-NH2; N-terminus assumed) = 3.70
• C[C@@H](O)[C@H](NC(=O)[C@H](CCCNC(=N)N)NC(=O)[C@@H]1CCCN1C(=O)[C@@H](N)CCCNC(=N)N)C(=O)N[C@@H](CCC(=O)NCCC(=O)NCCNS(=O)(=O)c1cccc2cnccc12)C(=O)N[C@@H](CO)C(=O)N[C@@H](Cc1ccccc1)C(N)=O [compound 6082] (H-RPRTE([βAla-Ethylenediamine-Isoquinoline5sulfonyl])SF-NH2; N-terminus assumed) = 2.30

Query string: Fill in the blank: the reported log10 IC50 of C[C@@H](O)[C@H](NC(=O)[C@H](CCCNC(=N)N)NC(=O)[C@@H]1CCCN1C(=O)[C@@H](N)CCCNC(=N)N)C(=O)N[C@@H](CC(=O)NCCNS(=O)(=O)c1cccc2cnccc12)C(=O)N[C@@H](CO)C(=O)N[C@@H](Cc1ccccc1)C(N)=O [compound 6130] (H-RPRTD([Ethylenediamine-Isoquinoline5sulfonyl])SF-NH2; N-terminus assumed) is ____.
Result string: 1.72
